# Tested on: multiple species and strains
# protocol_text: microbe, parasite or virus in culture
# recorded_conditions: Pseudomonas aeruginosa, ATCC27853, read-out: MIC S7, P. aeruginosa ATCC 27853

- compound: "CNc1cc(F)c(C#N)c2c1[nH]c1ncc(-c3ccc4ccc(C(=O)O)c(=O)n4c3)c(N3CC[C@H]4CCN(C)C4C3)c12 (stereo in doubt) [Example 1.17]"
  MIC, µg/mL: 0.882
- compound: "CNc1cc(F)c(F)c2c1[nH]c1ncc(-c3ccc4ccc(C(=O)O)c(=O)n4c3)c(N3CC[C@@]4(C[C@@H]4N)C3)c12 (single isomer, unassigned) [Example 4.01A]"
  MIC, µg/mL: 0.592
- compound: "CNc1cc(F)c(F)c2c1[nH]c1ncc(-c3ccc4ccc(C(=O)O)c(=O)n4c3)c(N3CC[C@]4(C[C@H]4N)C3)c12 [Example 4.01C]"
  MIC, µg/mL: 1.19

* * *

# System: K. pneumoniae (ATCC10031)
# protocol_text: 50% growth inhibitory concentration (IC50) determination assay, K. pneumoniae
# Format: cell-based
# recorded_conditions: Klebsiella pneumoniae, ATCC10031; Iso-Sensitest broth, growth by OD 600 nm over 16 h; <0.098 = detection limit
pIC50: −log10 of the molar value.
experimental_readout: pIC50

- compound: "CNc1cc(F)c(F)c2c1[nH]c1ncc(-c3ccc4ccc(C(=O)O)c(=O)n4c3)c(N(C)C)c12 [Example 1.01]"
  experimental_readout: "pIC50"
  recorded_result: "> 7.01"
- compound: "CNc1cc(F)c(F)c2c1[nH]c1ncc(-c3ccc4ccc(C(=O)O)c(=O)n4c3)c(N3CC[C@H]4CN(C)C[C@H]43)c12 [Example 1.04]"
  experimental_readout: "pIC50"
  recorded_result: "> 7.01"
- compound: "CNc1cc(F)cc2c1[nH]c1ncc(-c3ccc4ccc(C(=O)O)c(=O)n4c3)c(N3CC[C@@H]4CN(C)C[C@@H]43)c12 (single isomer, unassigned) [Example 3.02B]"
  experimental_readout: "pIC50"
  recorded_result: "> 7.01"
- compound: "CNc1cc(F)c(Cl)c2c1[nH]c1ncc(-c3ccc4ccc(C(=O)O)c(=O)n4c3)c(N3CC[C@H]4CN(C)C[C@H]43)c12 [Example 1.07]"
  experimental_readout: "pIC50"
  recorded_result: "> 7.01"
- compound: "CNc1cc(F)c(F)c2c1[nH]c1ncc(-c3ccc4c(CN(C)C)cc(C(=O)O)c(=O)n4c3)c(N3CC[C@H]4CN(C)C[C@H]43)c12 (relative stereo) [Example 2.03]"
  experimental_readout: "pIC50"
  recorded_result: "> 7.01"
- compound: "CNc1cc(F)c(Cl)c2c1[nH]c1ncc(-c3ccc4ccc(C(=O)O)c(=O)n4c3)c(N3CC[C@@]4(C[C@H]4N)C3)c12 [Example 5.01C]"
  experimental_readout: "pIC50"
  recorded_result: "> 7.01"
- compound: "CNc1cc(F)c(F)c2c1[nH]c1ncc(-c3ccc4c(CN5CCOCC5)cc(C(=O)O)c(=O)n4c3)c(N3CC[C@H]4CN(C)C[C@H]43)c12 (relative stereo) [Example 2.09]"
  experimental_readout: "pIC50"
  recorded_result: "> 7.01"
- compound: "CNc1cc(F)cc2c1[nH]c1ncc(-c3ccc4ccc(C(=O)O)c(=O)n4c3)c(N3CCOCC3)c12 [Example 1.02]"
  experimental_readout: "pIC50"
  recorded_result: "> 7.01"
